# system.tested: T1, human DR3 (full length, on cells) (human, UniProt Q93038 25-417)
# T1 sequence: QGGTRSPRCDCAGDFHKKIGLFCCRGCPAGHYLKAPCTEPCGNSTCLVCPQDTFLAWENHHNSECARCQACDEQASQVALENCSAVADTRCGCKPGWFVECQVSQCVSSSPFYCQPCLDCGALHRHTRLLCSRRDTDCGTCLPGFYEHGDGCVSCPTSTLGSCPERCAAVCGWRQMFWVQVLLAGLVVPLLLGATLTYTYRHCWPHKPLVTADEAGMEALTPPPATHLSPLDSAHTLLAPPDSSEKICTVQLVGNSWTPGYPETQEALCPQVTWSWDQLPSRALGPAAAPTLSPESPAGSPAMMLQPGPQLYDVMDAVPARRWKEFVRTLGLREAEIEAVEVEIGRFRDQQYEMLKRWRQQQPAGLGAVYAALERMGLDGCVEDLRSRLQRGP
# assay.overview: cell-based or functional assay
The entries below come with measured IFN-γ, TL1A-costimulated RA SF cells, Fab 0.03 µg/mL values attached.
Give just the numeric value; pg/mL need not be written.

Reference set (3 entries):
binder	value.observed
0173 (humanized IgG1 Fab of 0072; HC T28A S49A Y91S; LC Q3A T5A S60A M4L) (Fab, V domains shown) VH: EVQLVESGGGLVQPGGSLRLSCAASGFTFSNYDMSWVRQAAGKGLEWVSAFSSDGYTFYPGAVKGRFTISRENAKNSLYLQMNSLRAGDTAVYYCARHADYANSPVMDYWGQGTLVTVSS VL: DIALAQSPSSLSASVGDRVTITCRASKSVSTSGYSYMHWYQQKPGKAPKLLIYLASNLEAGVPSRFSGSGSGTDFTLTISSLQPEDFATYYCQHSRELPLTFGGGTKVEIK	1130
0171 (humanized IgG1 Fab of 0072 without back mutations) (Fab, V domains shown) VH: EVQLVESGGGLVQPGGSLRLSCAASGFTFSNYDMSWVRQATGKGLEWVSAFSSDGYTFYPGSVKGRFTISRENAKNSLYLQMNSLRAGDTAVYYCARHADYANYPVMDYWGQGTLVTVSS VL: DIQMTQSPSSLSASVGDRVTITCRASKSVSTSGYSYMHWYQQKPGKAPKLLIYLASNLESGVPSRFSGSGSGTDFTLTISSLQPEDFATYYCQHSRELPLTFGGGTKVEIK	1220
0118 (chimeric Fab of 27F16, human IgG1 constant domain) (Fab, V domains shown) VH: EVQLVESGGDFVKPGGSLKLSCAASGFTFNNYGMSWVRQTPDKRLEWVAAISSGVTYTYYPDTVKGRFTISRDNAKNTLYLHMSSLKSEDTAMYYCGRHDDYGNHFDYWGQGTTLTVSS VL: DIVMTQSPSSLAMSLGQRVTMNCKSSQSLLNSHNQKNYLAWYQQKPGQSPKLLVYFASSRESGVPDRFIGSGSGTDFTLTISSVQAEDLADYFCQQHYSTPFTFGSGTKLEIKR	2080

Proceed to the following item.
Entry under test: 0170 (humanized IgG1 Fab of 0072; HC T28A S49A Y91; LC Q3A T5A S60A M4) (Fab, V domains shown) VH: EVQLVESGGGLVQPGGSLRLSCAASGFTFSNYDMSWVRQAAGKGLEWVSAFSSDGYTFYPGAVKGRFTISRENAKNSLYLQMNSLRAGDTAVYYCARHADYANYPVMDYWGQGTLVTVSS VL: DIAMAQSPSSLSASVGDRVTITCRASKSVSTSGYSYMHWYQQKPGKAPKLLIYLASNLEAGVPSRFSGSGSGTDFTLTISSLQPEDFATYYCQHSRELPLTFGGGTKVEIK . Its IFN-γ, TL1A-costimulated RA SF cells, Fab 0.03 µg/mL was 1360

Data provenance: patent US20170305994A1
